Below, each entry is listed with its recorded log10 IC50.
ASSAY SYSTEM: TBK1 (residues 1-657) (Homo sapiens (Human), UniProt Q9UHD2)
Sequence (Q9UHD2 1-657): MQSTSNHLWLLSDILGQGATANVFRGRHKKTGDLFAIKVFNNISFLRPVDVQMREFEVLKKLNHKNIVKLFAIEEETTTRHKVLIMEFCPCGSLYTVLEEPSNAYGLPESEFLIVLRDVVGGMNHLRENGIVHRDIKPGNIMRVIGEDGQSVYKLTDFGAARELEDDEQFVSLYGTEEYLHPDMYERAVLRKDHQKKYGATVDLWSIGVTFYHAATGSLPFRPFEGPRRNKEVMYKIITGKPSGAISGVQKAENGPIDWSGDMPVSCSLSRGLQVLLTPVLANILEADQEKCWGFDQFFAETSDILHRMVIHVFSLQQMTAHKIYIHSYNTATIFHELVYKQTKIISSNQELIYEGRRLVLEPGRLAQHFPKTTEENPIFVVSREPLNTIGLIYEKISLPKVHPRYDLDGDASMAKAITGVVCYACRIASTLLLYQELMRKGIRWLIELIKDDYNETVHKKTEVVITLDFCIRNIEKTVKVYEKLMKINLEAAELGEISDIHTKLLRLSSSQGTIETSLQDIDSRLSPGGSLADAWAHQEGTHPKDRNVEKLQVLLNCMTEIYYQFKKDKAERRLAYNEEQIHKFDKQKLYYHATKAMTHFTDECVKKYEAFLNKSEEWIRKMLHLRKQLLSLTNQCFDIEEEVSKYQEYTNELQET
EXPERIMENT: TBK1 dose-response kinase assay
TEST CONTEXT: eight inhibitor concentrations from 400 μM or 40 μM to 0 μM; hill slope constrained to −1
MEASUREMENT KIND: log10 IC50 (log10 of the value in µM)

- CNC(=O)c1cc2c(=O)c3cc(C(C)C)ccc3oc2nc1N [Compound 282]: 1.29
- CC(C)c1ccc2oc3nc(/N=C/N(C)C)c(C(=O)O)cc3c(=O)c2c1 [Compound 275]: -1.10
- C=Cc1ccc2oc3nc(N)c(C(=O)O)cc3c(=O)c2c1 [Compound 296]: -0.41
- CC(C)(C)/C=C/c1ccc2oc3nc(N)c(C(=O)O)cc3c(=O)c2c1 [Compound 55d]: 0.95
- Nc1nc2oc3cc(F)c(C4=CCCCC4)cc3c(=O)c2cc1C(=O)O [Compound 268b]: 2.65
- Nc1cc2oc3ccccc3c(=O)c2cc1C(=O)O [Compound 294]: 0.14
- CC(C)c1ccc2oc3nc(N)c(-c4nnn[nH]4)cc3c(=O)c2c1 [Compound 286]: -0.74
- CC(C)c1ccc2oc3nc(N)c(C(=O)Nc4nnn[nH]4)cc3c(=O)c2c1 [Compound 288]: -0.74
- CC(C)c1ccc2oc3nc(N)c(-c4noc(=O)[nH]4)cc3c(=O)c2c1 [Compound 289]: 0.15
- CN(C)CCCc1ccc2oc3nc(N)c(C(=O)O)cc3c(=O)c2c1 [Compound 293]: 0.58
- CC(C)c1ccc2oc3nc(N)c(CO)cc3c(=O)c2c1 [Compound 97]: 0.19
